Just for reference, patent US11186564B2 is where these values come from.

Measured inhibition at 1 µM by item
# system under test: UniProt Q99250
# assay info: NaV1.2 inhibition, automated patch-clamp (Q-Patch HTX), slow inactivated state (state C)
# Type: cell-based
# measurement setup: 1 μM compound; hNaV1.2 CHO cells, slow inactivated state; read-out: NaV1.2 (% inh), 1 μM

compound	metric name	measured value
O=C1CCc2ccccc2N1CCN1CCC(Oc2ccc(F)cc2)CC1 [Example 190]	inhibition at 1 µM	25%
COc1ccc2c(c1)C(CN1CCC[C@@H](Oc3ccc(F)cc3)C1)CC2 (stereo partly shown) [Example 255]	inhibition at 1 µM	14%
c1ccc(OC2CCN(CCO[C@H]3CCc4ccccc43)CC2)cc1 [Example 217]	inhibition at 1 µM	58%
Fc1ccc(OC2CCN(CC3COCc4ccccc43)CC2)cc1 (stereo not shown) [Example 160]	inhibition at 1 µM	32%
c1ccc(N2[C@@H]3CC[C@H]2CN(CC2CCc4ccccc42)C3)cc1 (stereo partly shown) [Example 295]	inhibition at 1 µM	2%
Fc1ccc(O[C@@H]2CCN(CC3CCc4ncccc43)C2)cc1 (stereo partly shown) [Example 3]	inhibition at 1 µM	-5%
COc1ccccc1OC1CCN(CC2Cc3ccccc3C2)CC1 [Example 136]	inhibition at 1 µM	50%
O=C1c2cc(Cl)ccc2CN1CCN1CCC(Oc2ccc(F)cc2)CC1 [Example 189]	inhibition at 1 µM	0%
Fc1ccc(OC2CCN(CCC3COCc4ccccc43)CC2)cc1 (stereo not shown) [Example 184]	inhibition at 1 µM	35%
COc1ccc2c(c1)C(CN1CC3CC(C1)N(c1ccccc1)C3)CC2 (stereo not shown) [Example 328]	inhibition at 1 µM	31%

Looking up Fc1ccc(O[C@@H]2CCN(CC3COCc4ccccc43)C2)cc1 (stereo partly shown) [Example 11] , I see its inhibition at 1 µM listed as 29%

Looking up O=C1c2ccccc2CCN1CCN1C[C@H]2CC[C@@H](C1)N2c1ccccc1 [Example 297] , I see its inhibition at 1 µM listed as -4%

Looking up OC1(c2ccccc2)COC2(CCN(CC3CCc4ccccc43)CC2)C1 (stereo not shown) [Example 374] , I see its inhibition at 1 µM listed as 9%

Looking up COc1ccccc1OC1COC2(C1)CN(CC1CCc3ccccc31)C2 (stereo not shown) [Example 363] , I see its inhibition at 1 µM listed as 48%

Looking up O[C@@H](COc1ccccc1)CN1CCC2(CCc3ccccc3O2)CC1 [Example 441] , I see its inhibition at 1 µM listed as 17%

Looking up O[C@H](CO[C@@H]1CCc2ccccc21)CN1CC[C@@H](Oc2ccc(F)cc2)C1 [Example 46] , I see its inhibition at 1 µM listed as 41%

Looking up N#Cc1ccccc1OC1CCN(CC2CCOc3ccccc32)CC1 (stereo not shown) [Example 161] , I see its inhibition at 1 µM listed as 12%

Looking up O=C(CN1CCC(Oc2ccc(F)cc2)CC1)C1CCc2ccccc21 (stereo not shown) [Example 215] , I see its inhibition at 1 µM listed as 25%

Looking up Fc1ccc(N2CCC3(CCN(CC4CCc5cccnc54)C3)C2)cc1 (stereo not shown) [Example 337] , I see its inhibition at 1 µM listed as -2%

====

Measured pIC50 by item
# system under test: recombinant human serotonin receptor 5-HT2A (Homo sapiens, UniProt P28223)
# Construct: expressed in transfected cells; method B: loaded with Ca2+ dye
# Sequence (P28223 whole entry): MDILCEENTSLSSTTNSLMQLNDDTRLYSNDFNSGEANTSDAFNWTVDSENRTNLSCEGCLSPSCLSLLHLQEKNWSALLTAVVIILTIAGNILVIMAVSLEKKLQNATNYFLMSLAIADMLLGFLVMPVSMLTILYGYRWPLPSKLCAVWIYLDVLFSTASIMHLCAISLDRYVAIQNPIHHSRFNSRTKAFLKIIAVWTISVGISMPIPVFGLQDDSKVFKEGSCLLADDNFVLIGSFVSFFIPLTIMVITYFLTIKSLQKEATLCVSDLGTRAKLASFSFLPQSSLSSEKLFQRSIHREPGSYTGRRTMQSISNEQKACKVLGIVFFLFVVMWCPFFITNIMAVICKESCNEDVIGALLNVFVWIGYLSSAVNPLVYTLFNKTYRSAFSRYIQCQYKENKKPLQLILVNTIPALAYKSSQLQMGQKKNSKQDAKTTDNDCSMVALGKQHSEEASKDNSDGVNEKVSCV
# assay info: 5-HT2A antagonist Ca2+ assay in CHO-K1 cells (method A aequorin luminescence / method B FLIPR fluorescence)
# Type: cell-based
# measurement setup: antagonist mode vs EC80 of reference agonist, method A or B, read-out: 5HT2A IC50
Conceptually, pIC50 converts a concentration in mol/L into minus its log10.

A selection of reference data follows.
compound	measured value
OC(COC1CCCCC1)CN1[C@@H]2C[C@H]1CN(c1ccccc1)C2 (some centres unmarked)	5.87
COc1ccccc1O[C@H]1CCN(CC2Cc3cccnc3C2)[C@@H](C)C1 (some centres unmarked)	6.14

Looking up Fc1ccc(OCCCN2CCN(c3nsc4ccccc34)CC2)cc1 , I see its pIC50 listed as 8.70

====

# system under test: human sodium channel NaV1.2 (Homo sapiens)
# Sequence (Q99250 whole entry): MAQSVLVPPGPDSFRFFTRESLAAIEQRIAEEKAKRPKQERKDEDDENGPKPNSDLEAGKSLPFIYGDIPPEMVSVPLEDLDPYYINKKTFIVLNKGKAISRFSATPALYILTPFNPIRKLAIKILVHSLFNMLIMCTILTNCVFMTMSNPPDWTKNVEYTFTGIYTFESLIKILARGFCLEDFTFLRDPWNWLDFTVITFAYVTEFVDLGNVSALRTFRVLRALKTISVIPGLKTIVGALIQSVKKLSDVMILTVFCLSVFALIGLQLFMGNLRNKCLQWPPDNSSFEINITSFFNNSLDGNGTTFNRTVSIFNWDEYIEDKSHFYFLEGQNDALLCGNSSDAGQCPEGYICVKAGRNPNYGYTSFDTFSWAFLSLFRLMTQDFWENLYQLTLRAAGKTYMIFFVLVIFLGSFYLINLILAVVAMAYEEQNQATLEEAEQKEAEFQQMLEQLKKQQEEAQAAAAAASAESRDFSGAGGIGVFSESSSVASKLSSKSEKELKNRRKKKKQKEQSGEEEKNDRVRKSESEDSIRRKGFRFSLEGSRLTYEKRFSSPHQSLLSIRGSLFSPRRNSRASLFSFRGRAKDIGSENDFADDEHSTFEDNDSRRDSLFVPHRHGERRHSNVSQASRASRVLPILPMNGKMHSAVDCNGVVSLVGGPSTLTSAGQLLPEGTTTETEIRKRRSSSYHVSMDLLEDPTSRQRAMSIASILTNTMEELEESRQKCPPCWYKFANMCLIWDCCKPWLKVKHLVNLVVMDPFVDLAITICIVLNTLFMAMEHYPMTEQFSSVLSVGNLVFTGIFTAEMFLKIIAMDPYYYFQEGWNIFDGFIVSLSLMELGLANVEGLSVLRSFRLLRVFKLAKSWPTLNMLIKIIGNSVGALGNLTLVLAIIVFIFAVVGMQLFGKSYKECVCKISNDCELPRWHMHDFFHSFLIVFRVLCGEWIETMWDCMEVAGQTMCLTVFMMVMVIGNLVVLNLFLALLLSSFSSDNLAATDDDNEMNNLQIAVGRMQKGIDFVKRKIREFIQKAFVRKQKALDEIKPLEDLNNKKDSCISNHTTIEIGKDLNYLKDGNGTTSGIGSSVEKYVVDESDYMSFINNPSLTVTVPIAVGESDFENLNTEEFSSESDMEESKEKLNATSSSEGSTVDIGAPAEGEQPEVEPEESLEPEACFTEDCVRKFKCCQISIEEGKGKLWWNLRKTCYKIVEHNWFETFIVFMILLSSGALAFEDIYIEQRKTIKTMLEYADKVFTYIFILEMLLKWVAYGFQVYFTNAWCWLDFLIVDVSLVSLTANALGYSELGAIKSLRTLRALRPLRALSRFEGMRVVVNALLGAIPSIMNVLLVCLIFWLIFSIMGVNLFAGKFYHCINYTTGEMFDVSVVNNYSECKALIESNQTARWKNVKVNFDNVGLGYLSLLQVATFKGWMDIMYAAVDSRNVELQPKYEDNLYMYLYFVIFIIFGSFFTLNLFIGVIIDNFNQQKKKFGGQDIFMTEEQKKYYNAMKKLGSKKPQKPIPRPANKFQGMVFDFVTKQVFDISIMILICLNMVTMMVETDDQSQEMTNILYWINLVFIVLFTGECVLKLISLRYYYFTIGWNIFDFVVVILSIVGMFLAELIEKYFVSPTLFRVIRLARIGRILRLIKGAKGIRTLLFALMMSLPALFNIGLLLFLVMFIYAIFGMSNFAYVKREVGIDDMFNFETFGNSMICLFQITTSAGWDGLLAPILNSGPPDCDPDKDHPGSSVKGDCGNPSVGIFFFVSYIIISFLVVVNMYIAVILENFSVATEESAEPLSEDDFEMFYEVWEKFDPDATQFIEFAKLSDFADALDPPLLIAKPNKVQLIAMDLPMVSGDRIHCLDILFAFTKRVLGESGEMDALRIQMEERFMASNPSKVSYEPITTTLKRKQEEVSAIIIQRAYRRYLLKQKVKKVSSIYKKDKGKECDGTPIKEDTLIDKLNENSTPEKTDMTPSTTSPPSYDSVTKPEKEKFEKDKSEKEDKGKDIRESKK
# assay info: NaV1.2 inhibition, automated patch-clamp (Q-Patch HTX), slow inactivated state (state C)
# Format: cell-based
# measurement setup: hNaV1.2 CHO cells, slow inactivated state; read-out: NaV1.2 IC50
metric name: pIC50
Conceptually, pIC50 converts a concentration in mol/L into minus its log10.

molecule	pIC50
Cc1ccc(N2CCN(C[C@H](O)COC3CCCCC3)CC2)cc1 [Example 77]	5.04
Fc1ccc(OC2COC3(C2)CN(CC2Cc4cccnc4C2)C3)cc1 (stereo not drawn) [Example 370]	5.70
OC(COC1CCCCC1)CN1[C@@H]2C[C@H]1CN(c1ccccc1)C2 (stereo partly drawn) [Example 281]	5.75
OC(COC1CCCc2ccccc21)CN1CCN(Cc2ccccc2)CC1 (stereo not drawn) [Example 83]	7.70
O[C@@H](CO[C@@H]1CCCc2ccccc21)CN1CC[C@@H](Oc2ccc(F)cc2)C1 [Example 53]	5.71
OC(COC1CCCCC1)CN1CCN(c2ccccc2)CC1 (stereo not drawn) [Example 74]	4.29

Looking up Fc1ccc(OC2CCN(CC3CCc4cccc(F)c43)CC2)cc1 (stereo not drawn) [Example 119] , I see its pIC50 listed as 6.74

Looking up O=C1CC2(CCN(CC3CCc4ccccc43)C2)Oc2ccccc21 (stereo not drawn) [Example 388] , I see its pIC50 listed as 5.76

Looking up OC(CO[C@@H]1CCc2ccccc21)CN1CC[C@@H](Oc2ccc(F)cc2)C1 (stereo partly drawn) [Example 44] , I see its pIC50 listed as 6.62

====

# system under test: human sodium channel NaV1.2 (Homo sapiens)
# assay info: NaV1.2 inhibition, automated patch-clamp (Q-Patch HTX), slow inactivated state (state C)
# Type: cell-based
# measurement setup: hNaV1.2 CHO cells, slow inactivated state; read-out: NaV1.2 IC50
Measured pIC50 by item
Conceptually, pIC50 converts a concentration in mol/L into minus its log10.

A selection of reference data follows.
molecule	measured value
OC(CO[C@@H]1CCc2ccccc21)CN1CC[C@@H](Oc2cccc(F)c2)C1 (some centres unmarked)	6.60
CO[C@H](CCN1CCC(Oc2ccccc2)CC1)c1ccccc1	5.97
c1ccc2c(c1)CCC1(CCN(CC3CCc4ccccc43)CC1)O2 (centres unmarked)	6.96

Consider the record given below.
Looking up Cc1ccccc1OCC(O)CN1CCC(c2nc3ccccc3s2)CC1 (centres unmarked) , I see its pIC50 listed as 6.77

====

# system under test: recombinant human serotonin receptor 5-HT2A (Homo sapiens, UniProt P28223)
# Construct: expressed in transfected cells; method B: loaded with Ca2+ dye
# assay info: 5-HT2A antagonist Ca2+ assay in CHO-K1 cells (method A aequorin luminescence / method B FLIPR fluorescence)
# Assay type: cell-based
# measurement setup: antagonist mode vs EC80 of reference agonist, method A or B, read-out: 5HT2A IC50
metric name: IC50

molecule	system under test	measured value
COc1ccc2c(c1)C(CN1C[C@H]3CC[C@@H]1CN3c1ccccc1)CC2 (single isomer, unassigned) [Compound 314]	recombinant human serotonin receptor 5-HT2A (Homo sapiens, UniProt P28223)	> 10000 nM
COc1ccc2c(c1)C(CN1C[C@H]3CC[C@@H](C1)N3c1ccccc1)CC2 (some centres unmarked)	recombinant human serotonin receptor 5-HT2A (Homo sapiens, UniProt P28223)	> 10000 nM
c1ccc(N2C[C@@H]3C[C@H]2CCN3CC2Cc3cccnc3C2)cc1 (some centres unmarked)	recombinant human serotonin receptor 5-HT2A (Homo sapiens, UniProt P28223)	> 10000 nM

Looking up Fc1ccc(O[C@H]2CCN(CC3COCc4ccccc43)C2)cc1 (some centres unmarked) , I see its IC50 listed as 300 nM

Looking up O=C1c2ccccc2CCN1CCN1CCC[C@H](Oc2ccc(F)cc2)C1 , I see its IC50 listed as > 13100 nM

Looking up Fc1ccc(O[C@H]2CCN(CC3CCc4ccncc43)C2)cc1 (some centres unmarked) , I see its IC50 listed as 3000 nM

====

Measured IC50 by item
# system under test: recombinant human serotonin receptor 5-HT2A (Homo sapiens, UniProt P28223)
# Construct: expressed in transfected cells; method B: loaded with Ca2+ dye
# assay info: 5-HT2A antagonist Ca2+ assay in CHO-K1 cells (method A aequorin luminescence / method B FLIPR fluorescence)
# Type: cell-based
# measurement setup: antagonist mode vs EC80 of reference agonist, method A or B, read-out: 5HT2A IC50

molecule	system under test	measured value
O[C@H](COC1CCCCC1)CN1CCC[C@@H](Oc2ccc(F)cc2)C1 [Example 266]	recombinant human serotonin receptor 5-HT2A (Homo sapiens, UniProt P28223)	> 12.9 µM
N#Cc1ccc(O[C@H]2CCN(CCN3CCc4ccccc4C3=O)C2)cc1 [Example 32]	recombinant human serotonin receptor 5-HT2A (Homo sapiens, UniProt P28223)	> 16.7 µM
OC(COc1ccccc1)CN1C[C@@H]2C[C@H](C1)N(c1ccccc1)C2 (stereo partly drawn) [Example 334]	recombinant human serotonin receptor 5-HT2A (Homo sapiens, UniProt P28223)	> 16.7 µM
c1ccc(N2C[C@@H]3C[C@H]2CCN3CC2Cc3ccncc3C2)cc1 (stereo partly drawn) [Example 321]	recombinant human serotonin receptor 5-HT2A (Homo sapiens, UniProt P28223)	> 10 µM
O[C@@H](CO[C@@H]1CCCc2ccccc21)CN1CCN(Cc2ccccc2)CC1 [Example 84]	recombinant human serotonin receptor 5-HT2A (Homo sapiens, UniProt P28223)	> 16.7 µM

Looking up O[C@H](COC1CCCCC1)CN1CC[C@@H]2C[C@H]1CN2c1ccccc1 [Example 326] , I see its IC50 listed as > 3.16 µM
